TARGET OR SYSTEM: T1, mouse PTH1R overexpressed on CHO cells (mouse, UniProt P41593 27-591)
T1 sequence (looked up): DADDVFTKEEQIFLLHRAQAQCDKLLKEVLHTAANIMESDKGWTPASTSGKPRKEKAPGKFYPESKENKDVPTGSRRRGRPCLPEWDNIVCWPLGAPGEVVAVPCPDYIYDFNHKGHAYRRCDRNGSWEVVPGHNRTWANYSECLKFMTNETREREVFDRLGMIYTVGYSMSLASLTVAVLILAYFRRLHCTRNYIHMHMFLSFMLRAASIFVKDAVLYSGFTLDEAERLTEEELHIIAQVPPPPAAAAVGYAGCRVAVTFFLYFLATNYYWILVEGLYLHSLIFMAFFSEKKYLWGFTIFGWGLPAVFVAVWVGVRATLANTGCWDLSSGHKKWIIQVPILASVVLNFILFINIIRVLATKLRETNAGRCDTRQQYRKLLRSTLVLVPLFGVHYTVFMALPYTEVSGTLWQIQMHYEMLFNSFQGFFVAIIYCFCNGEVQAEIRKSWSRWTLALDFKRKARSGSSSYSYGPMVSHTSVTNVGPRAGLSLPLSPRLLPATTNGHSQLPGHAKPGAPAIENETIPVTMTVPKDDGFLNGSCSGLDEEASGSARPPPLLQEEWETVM
ASSAY METHOD TEXT: cell-based or functional assay
ENDPOINT LABEL: IC50, inhibition of PTHrP(1-34)-induced cAMP accumulation (nM)
Write down the numeric answer in nM and omit the unit.

XPA.85.334 (antibody, V domains shown, Light-chain-shuffled variant of XPA.85.012) VH: QMQLVQSGAEVKKPGSSVKVSCKASGGTFSSYAISWVRQAPGQGLEWMGGIIPIFGTANYAQKFQGRVTITADESTSTAYMELSSLRSEDTAVYYCARGYVVARLWGQGTLVTVSS VL: DIVMTQTPLSLSVTPGQPASITCKSSQSLLHIDGKTYLYWFLQKPGQPPQLLIYEVSNRFSGVPDRFSGTGSGTDFTLKISRVEAEDVGVYYCMQSLHFPITFGPGTRLEIK :: 3.32

Lab note: next binder to report on.
QUERY: Supply IC50, inhibition of PTHrP(1-34)-induced cAMP accumulation value. Item: XPA.85.343 (antibody, V domains shown, Light-chain-shuffled variant of XPA.85.012) VH: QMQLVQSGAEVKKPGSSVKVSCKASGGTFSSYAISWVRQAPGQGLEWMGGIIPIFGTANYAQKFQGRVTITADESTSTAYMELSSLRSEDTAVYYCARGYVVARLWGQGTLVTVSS VL: DVVMTQTPLSLSVTPGQPASISCKSSQSLLHIDGRTYLYWYLQKAGQPPQLLIYEVSNRFSGVPDRFSGSGSGTDFTLKISRVEAEDVGVYYCMQSIHFPLTFGGGTKLEIK
RESULT: 3.87
